compounds and their reported melting point

Sample records with melting point:
NS(=O)(=O)c1ccc(CNC(=O)c2cccnc2Oc2cccc(-n3cnnn3)c2)cc1; 72 to 74 °C
O=S(=O)(c1ccc(-c2ccc(C(O)CCl)cc2)cc1)C(F)F (stereo not given); 104 to 107 °C
COc1ccc2c(c1)CCC1C2CCC2(C)C(O)CCC12 (stereo not given); 121 to 124 °C
CS(=O)(=O)c1ccc(-c2cnn(CC(=O)c3ccccc3)c(=O)c2-c2ccc(F)cc2)cc1; 228 to 230 °C
CCCOc1ccccc1-c1nc2c(C(=O)NCC)cccc2c(=O)[nH]1; 161 to 162 °C

### Prompt For the compound shown here, "O=C(OCCN1CCNC1=Nc1ccccc1N1CCOCC1)c1ccccc1" , give the reported melting point.
### Response 92 to 94 °C
